Cited source: ChEMBL document CHEMBL1201862

system: UACC-62; assay: NCI tumour cell line growth inhibition, 48 h
The source made the active and inactive calls. Cut-off read from the data, not from the text of the source: active = GI50 up to about 1.1 µM and inactive = higher.
Returns: one label drawn from Yes = active, No = inactive

Completed entries (count: 3):
Molecule: Cc1cc(=O)n2nc(CSc3nnc(N)s3)sc2n1
Classification: No
//
Molecule: O=C(OCC(OC(=O)c1ccccc1)C1CC(C2(O)CCCCC2)C(=O)O1)c1ccccc1 (stereo not drawn)
Classification: Yes
//
Molecule: COc1ccc(C2C(Cl)C(=O)N2NC(=O)c2ccc(NC(C)=O)cc2)cc1 (stereo not drawn)
Classification: No

query: Which outcome was assigned to "O=C(CCc1nnc(S)[nH]1)Nc1cc(Cl)ccc1Cl" in this test?
result: No

query: Which outcome was assigned to "CS(=O)(=O)N(N(CCCl)S(=O)(=O)c1ccccc1)S(C)(=O)=O" in this test?
result: No

query: Which outcome was assigned to CCc1cc2c(c3c1CCC3=O)CC1(Cc3ccc(C)cc3C1)C2 (stereo not drawn) in this test?
result: No

query: Which outcome was assigned to "Nc1nc(-c2ccccc2/N=N/N2CCCC2)nc2ccccc12" in this test?
result: No

query: Which outcome was assigned to "CC1=C(/C=C/C(C)=C/C=C/C(C)=C/CO)C(C)(C)CCC1" in this test?
result: No

---

Catalogue of GI50 values
tested on: SK-MEL-28; test: NCI tumour cell line growth inhibition, 48 h
Active and inactive are the calls of the source. Rule as the data show it: active = GI50 up to about 1.1 µM and inactive = higher.

Compound: CCCC(O)c1cn(C(NC(=O)c2ccccc2)P(=O)(OCC)OCC)nn1 (stereo not drawn)
GI50: > 100 µM (inactive)
//
Compound: ClCCN(CCCl)c1ccc(CNCCCNCc2ccc(N(CCCl)CCCl)cc2)cc1
GI50: 1.69 µM (inactive)
//
Compound: CSC1=N/C(=C\c2ccc(Cl)cc2)C(=O)N1CN1CCCCC1
GI50: > 100 µM (inactive)
//
Compound: OCCSCc1ccccc1
GI50: > 100 µM (inactive)
//
Compound: COC(=O)c1ccc(OCc2ccc3nc(OC)c(OC)nc3c2)cc1
GI50: > 100 µM (inactive)
//
Compound: CC(=O)OCCOCNC(=S)N/N=C/c1ccc([N+](=O)[O-])o1
GI50: 98.4 µM (inactive)

Observed GI50, SK-MEL-28, CC1Cc2c(Br)nc(N)nc2NC1=O (stereo not drawn) : > 100 µM (inactive)

Observed GI50, SK-MEL-28, COc1cc(/C=C2/SC(c3ccccc3)N(c3cccc([N+](=O)[O-])c3)C2=O)cc(OC)c1OC (stereo not drawn) : 55.5 µM (inactive)

Observed GI50, SK-MEL-28, "S=c1[nH]c(=S)c2nnn(-c3ccccc3)c2[nH]1" : > 100 µM (inactive)

Observed GI50, SK-MEL-28, CC(C)(C)OC(=O)C1C(=O)NC(=O)CC1C(COCc1ccccc1)OCc1ccccc1 (stereo not drawn) : 18.1 µM (inactive)

Observed GI50, SK-MEL-28, "Cc1cc(NS(=O)(=O)c2ccc(NC(NC(=O)C(C(F)(F)F)C(F)(F)F)(C(F)(F)F)C(F)(F)F)cc2)no1" : > 100 µM (inactive)

Observed GI50, SK-MEL-28, "NNC(=O)Cc1cccnc1" : > 100 µM (inactive)

Observed GI50, SK-MEL-28, "CN(CCO)/N=N/c1n[nH]cc1C(N)=O" : > 100 µM (inactive)

Observed GI50, SK-MEL-28, "COc1ccc(C2C3=C(CCCC3=O)N(c3ccccc3)C3=C2C(=O)CCC3)cc1" : > 100 µM (inactive)

---

tested on: SK-MEL-5; test: NCI tumour cell line growth inhibition, 48 h
Calls of active or inactive are those of the source. No stated cut-off is given here; in the data, active = GI50 up to about 1.1 µM and inactive = higher.
Catalogue of GI50 values

Consider the following illustrative entries.
Molecule: Cc1csc2c(P(=O)(OC(C)C)OC(C)C)c(-c3ccccc3)cn12
Observation Type: GI50
Test Result: 16.2 µM (inactive)

Molecule: Cc1ccsc1/C=N/Nc1cnccn1
Observation Type: GI50
Test Result: > 100 µM (inactive)

Molecule: N#Cc1c(-c2ccc(Cl)cc2)cc(-c2ccc(Nc3ccnc4cc(C(F)(F)F)ccc34)cc2)nc1N
Observation Type: GI50
Test Result: 25.3 µM (inactive)

molecule "CCNc1cc2c3c(c1)CCN3CCC2" , GI50 observed: > 10 µM (inactive)

molecule "ClCCNCCNCCCl.ClCCNCCNCCCl.[O-][Cl+3]([O-])([O-])O" , GI50 observed: 23 µM (inactive)

molecule "Cc1c(C(=O)CC(=O)C(=O)Nc2ccc(Cl)cc2)[n+]([O-])c2ccccc2[n+]1[O-]" , GI50 observed: > 100 µM (inactive)

molecule O=C(OCC(OC(=O)c1ccccc1)C1CC(C2(O)CCCCC2)C(=O)O1)c1ccccc1 (stereo unspecified) , GI50 observed: > 25 µM (inactive)

molecule "CS(=O)(=O)N(N(CCCl)S(=O)(=O)c1ccccc1)S(C)(=O)=O" , GI50 observed: 52.7 µM (inactive)

molecule COc1ccc(C2OC(N)=C(C#N)C3=C2CCCC3C)cc1OC (stereo unspecified) , GI50 observed: > 100 µM (inactive)

molecule "O=C1CCc2ccc(O)c(c2)Oc2ccc(cc2)[C@@H]2O[C@@H]2CO1" , GI50 observed: 23.6 µM (inactive)

molecule "Cc1ccc([N+](=O)[O-])c2c(NCCCN(C)C)ccnc12" , GI50 observed: 29.6 µM (inactive)

molecule Cc1cccc(C(C)(C)C)c1NC(=O)CC1C(=O)Nc2ccccc2S1(=O)=O (stereo unspecified) , GI50 observed: 12.1 µM (inactive)

molecule "COc1ccc(/C=C(\NC(=O)c2ccccc2)C(=O)NN(C)c2ccnc3cc(Cl)ccc23)cc1OC" , GI50 observed: 23.6 µM (inactive)

molecule COc1ccc(C2C(Cl)C(=O)N2NC(=O)c2ccc(NC(C)=O)cc2)cc1 (stereo unspecified) , GI50 observed: > 100 µM (inactive)

molecule "CN(C)CCCn1cnc2cc(Cl)c(Cl)cc21" , GI50 observed: 53.1 µM (inactive)

molecule "COc1ccc2oc(=N)c(C(=O)Nc3ccccc3)cc2c1" , GI50 observed: 25.8 µM (inactive)

molecule "COC(=O)/C=C(\CC(=O)OC)n1nnnc1[C@@H]1C[C@H](COC(c2ccccc2)(c2ccccc2)c2ccccc2)[C@H]2OC(C)(C)O[C@H]21" , GI50 observed: 76.7 µM (inactive)

molecule COc1ccc2c(c1)CN1CCc3c(cc(OC)c(OC)c3OC)C1C2 (stereo unspecified) , GI50 observed: 36.5 µM (inactive)

molecule "OCC#CCNCl" , GI50 observed: > 100 µM (inactive)

molecule "CCc1nc(N)nc(N)c1-c1ccc(N2CCNCC2)c([N+](=O)[O-])c1" , GI50 observed: 8.59 µM (inactive)

molecule COC(=O)C(=O)C(/C(=N/N)C(=O)Nc1ccccc1C(N)=O)c1nc2ccc([N+](=O)[O-])cc2nc1O (stereo unspecified) , GI50 observed: > 100 µM (inactive)

---

tested on: SK-MEL-2; experiment: NCI tumour cell line growth inhibition, 48 h
Calls of active or inactive are those of the source. No stated cut-off is given here; in the data, active = GI50 up to about 1.1 µM and inactive = higher.
Returns: one label drawn from active, inactive

Completed entries (count: 6):
Compound: CCN(CC)CCNC(=O)c1cc2cc(NC(=O)c3cc4cc(NC(=O)c5cc6cc([N+](=O)[O-])ccc6[nH]5)ccc4[nH]3)ccc2[nH]1
Classification: inactive
--
Compound: Nc1ccc(S(=O)(=O)Nc2nc3ccccc3nc2N2CCCCC2)cc1
Classification: inactive
--
Compound: Cn1cnc2c(OCC3CCCCC3)nc(N)nc21
Classification: inactive
--
Compound: CN1CC(c2ccccc2)C(O)(C2(c3ccccc3)CN(C)CC(c3ccccc3)C2=O)C(c2ccccc2)C1 (centres undefined)
Classification: inactive
--
Compound: S=C(NCCc1ccccn1)N/N=C/c1ccccn1
Classification: active
--
Compound: CC1=C(/C=C/C(C)=C/C=C/C(C)=C/CO)C(C)(C)CCC1
Classification: inactive

query: Which outcome was assigned to "COc1ccc(/C=C(\NC(=O)c2ccccc2)C(=O)NN(C)c2ccnc3cc(Cl)ccc23)cc1OC" in this test?
result: inactive

query: Which outcome was assigned to Nc1nc2c(ncn2CCOC(c2ccccc2)P(=O)(O)O)c(=O)[nH]1 (centres undefined) in this test?
result: inactive

query: Which outcome was assigned to COc1ccccc1C[C@@H]1OC2(C=CC(=O)CC2SC(=O)c2ccccc2)O[C@H]1Cc1ccccc1OC (some centres undefined) in this test?
result: inactive

---

tested on: 786-0; test: NCI tumour cell line growth inhibition, 48 h
Activity calls are given as the source filed them. No stated cut-off is given here; in the data, active = GI50 up to about 1.1 µM and inactive = higher.
Catalogue of GI50 values

Consider the following illustrative entries.
Compound: CN1CC(c2ccccc2)C(O)(C2(c3ccccc3)CN(C)CC(c3ccccc3)C2=O)C(c2ccccc2)C1 (stereo not given)
GI50: > 100 µM (inactive)
//
Compound: O=C(NCc1ccccc1)C1C(=O)C(=O)N(Cc2ccccc2)C1=O (stereo not given)
GI50: > 100 µM (inactive)
//
Compound: N#Cc1nc(CCN2C(=O)c3ccccc3C2=O)oc1N
GI50: > 100 µM (inactive)
//
Compound: C/C(=C\C(C)COCc1ccccc1)[C@H](COCc1ccccc1)OCc1ccccc1 (stereo not given in full)
GI50: > 100 µM (inactive)
//
Compound: Cc1ccc(S(=O)(=O)N/N=C2/CC[C@H](C(C)(C)C)C[C@@H]2C)cc1
GI50: 17.1 µM (inactive)
//
Compound: Cc1cn([C@H]2C[C@@H](N3C(=O)c4ccccc4C3=O)[C@@H](CO[Si](C)(C)C(C)(C)C)O2)c(=O)[nH]c1=O
GI50: 26.9 µM (inactive)
//
Compound: CC(C)(C)OC(=O)N1CC(CCl)c2ccc(O)cc21 (stereo not given)
GI50: 3.74 µM (inactive)
//
Compound: COc1ccc(C2=Nc3ccccc3SC(C)C2)cc1 (stereo not given)
GI50: > 100 µM (inactive)

Observed GI50, 786-0, "COC(=O)c1nc(-c2nc(CCNC(=O)OC(C)(C)C)sc2Cl)sc1Cl" : > 100 µM (inactive)

Observed GI50, 786-0, "c1cc(-c2cn3c(n2)SCC3)ccn1" : 20.5 µM (inactive)
